# experimental details: Encapsulation efficiency of the lipid nanoparticle (eGFP mRNA) by Ribogreen method
# Type: physicochemical
# measurement context: LNP encapsulating eGFP mRNA, ionizable lipid/DOPE/cholesterol/DMG-PEG2000 50/10/48.25/1.25 mol%, N/P 12
# Method: The ionizable lipid compound and positive control 1 from Example I were dissolved in ethanol at a molar ratio of 50:10:48.25:1.25 with DOPE, cholesterol, and DMG-PEG2000 (all purchased from A.V.T (Shanghai) Pharmaceutical Co., Ltd.) to prepare an ethanol lipid solution. The enhanced green fluorescent protein (eGFP) mRNA was diluted in 20 mM citrate buffer (pH=6.1) to obtain an mRNA aqueous solution. […]
value kind: Encapsulation rate, % (%)

- molecule: "CCCCCCCCCCCOC(=O)CCCCCCN(CCO)CCCN(CCCCCCC(=O)OCCCCCCCCCCC)CCCCCCC(=O)OCCCCCCCCCCC"
  Encapsulation rate, % (%): 99.30
- molecule: "CCCCCCCCCCCOC(=O)CCN(CCCO)CCCN(CCC(=O)OCCCCCCCCCCC)CCC(=O)OCCCCCCCCCCC"
  Encapsulation rate, % (%): 95.99
- molecule: "CCCCC/C=C\\C/C=C\\CCCCCCCCOC(=O)CCCCCCN(CCCO)CCCN(CCCCCCC(=O)OCCCCCCCC/C=C\\C/C=C\\CCCCC)CCCCCCC(=O)OCCCCCCCC/C=C\\C/C=C\\CCCCC"
  Encapsulation rate, % (%): 92.78
- molecule: "CCCCCCCCCCCCOC(=O)CCCCCCN(CCCCO)CCCN(CCCCCCC(=O)OCCCCCCCCCCCC)CCCCCCC(=O)OCCCCCCCCCCCC"
  Encapsulation rate, % (%): 99.79
- molecule: "CCCCCCCCCCCOC(=O)CCCN(CCO)CCCN(CCCC(=O)OCCCCCCCCCCC)CCCC(=O)OCCCCCCCCCCC"
  Encapsulation rate, % (%): 90.54
- molecule: "CCCCC/C=C\\C/C=C\\CCCCCCCCOC(=O)CCCCCCCN(CCO)CCCN(CCCCCCCC(=O)OCCCCCCCC/C=C\\C/C=C\\CCCCC)CCCCCCCC(=O)OCCCCCCCC/C=C\\C/C=C\\CCCCC [Example 79]"
  Encapsulation rate, % (%): 99.80
- molecule: "CCCCCCCCCOC(=O)CCCCCCCN(CCO)CCCN(CCCCCCCC(=O)OCCCCCCCCC)CCCCCCCC(=O)OCCCCCCCCC"
  Encapsulation rate, % (%): 78.69
- molecule: "CCCCCCCCCCCCCOC(=O)CCCCN(CCCO)CCCN(CCCCC(=O)OCCCCCCCCCCCCC)CCCCC(=O)OCCCCCCCCCCCCC"
  Encapsulation rate, % (%): 99.29
- molecule: "CCCCCCCCCCCCCOC(=O)CCCN(CCCCO)CCCN(CCCC(=O)OCCCCCCCCCCCCC)CCCC(=O)OCCCCCCCCCCCCC"
  Encapsulation rate, % (%): 96.31
- molecule: "CCCCCCCCCCCCCOC(=O)CCN(CCCO)CCCN(CCC(=O)OCCCCCCCCCCCCC)CCC(=O)OCCCCCCCCCCCCC"
  Encapsulation rate, % (%): 98.30
- molecule: "CCCCCCCCCCCCCOC(=O)CCCN(CCCO)CCCCCN(CCCC(=O)OCCCCCCCCCCCCC)CCCC(=O)OCCCCCCCCCCCCC"
  Encapsulation rate, % (%): 92.32
- molecule: "CCCCCCCCCCCCCCOC(=O)CCCCCN(CCCCO)CCCN(CCCCCC(=O)OCCCCCCCCCCCCCC)CCCCCC(=O)OCCCCCCCCCCCCCC"
  Encapsulation rate, % (%): 98.32
- molecule: "CCCCCCCCCCCCCOC(=O)CCCCN(CCO)CCCN(CCCCC(=O)OCCCCCCCCCCCCC)CCCCC(=O)OCCCCCCCCCCCCC"
  Encapsulation rate, % (%): 97.58

----------
# key: entry, value: viability at 24 h
# experimental details: In vitro transfection of cells with eGFP-mRNA lipid nanoparticle (LNP preparation), fluorescence imaging and flow cytometry
# Format: cell-based, mouse
# measurement context: mouse, dc2.4 cells, 200 ng of mRNA per well, after 24 hours; read-out: Cell viability, %
Expressed in %, but write only the number.

The cases that follow already have their viability at 24 h on record.
- record smiles: "CCCCCCCCCCCCCOC(=O)CN(CCO)CCCN(CC(=O)OCCCCCCCCCCCCC)CC(=O)OCCCCCCCCCCCCC"
  output unit: "%"
  viability at 24 h: 95
- record smiles: "CCCCCCCCCCOC(=O)CCCN(CCO)CCCN(CCCC(=O)OCCCCCCCCCC)CCCC(=O)OCCCCCCCCCC"
  output unit: "%"
  viability at 24 h: 82.6
- record smiles: "CCCCC/C=C\\C/C=C\\CCCCCCCCOC(=O)CCCCN(CCCO)CCCN(CCCCC(=O)OCCCCCCCC/C=C\\C/C=C\\CCCCC)CCCCC(=O)OCCCCCCCC/C=C\\C/C=C\\CCCCC"
  output unit: "%"
  viability at 24 h: 91

q: Which measured viability at 24 h value corresponds to CCCCCCCCCCCCCCOC(=O)CCCCCCCN(CCO)CCCN(CCCCCCCC(=O)OCCCCCCCCCCCCCC)CCCCCCCC(=O)OCCCCCCCCCCCCCC ?
a: 55.6

q: Tell me the measured viability at 24 h of CCCCC/C=C\C/C=C\CCCCCCCCOC(=O)CCCN(CCCO)CCCN(CCCC(=O)OCCCCCCCC/C=C\C/C=C\CCCCC)CCCC(=O)OCCCCCCCC/C=C\C/C=C\CCCCC , please.
a: 92.3

----------
Overview of recorded Cell viability, % for various compounds
# Test system: DC2.4 cells
# experimental details: In vitro transfection of cells with eGFP-mRNA lipid nanoparticle (LNP preparation), fluorescence imaging and flow cytometry
# Assay type: cell-based, mouse
# measurement context: DC2.4 cells, 200 ng of mRNA per well, after 24 hours; 1440 min
Return type: number; implicit unit %.

- record smiles: "CCCCCCCCCCCCCOC(=O)CCCCCCCN(CCO)CCCN(CCCCCCCC(=O)OCCCCCCCCCCCCC)CCCCCCCC(=O)OCCCCCCCCCCCCC"
  output unit: "%"
  Cell viability, %: 91.6

q: Any idea what Cell viability, % was measured for CCCCCCCCCCCCCOC(=O)CCCN(CCCO)CCCCN(CCCC(=O)OCCCCCCCCCCCCC)CCCC(=O)OCCCCCCCCCCCCC ?
a: 95.9

q: Please look up its Cell viability, %: CCCCC/C=C\C/C=C\CCCCCCCCOC(=O)CCCN(CCCO)CCCN(CCCC(=O)OCCCCCCCC/C=C\C/C=C\CCCCC)CCCC(=O)OCCCCCCCC/C=C\C/C=C\CCCCC
a: 76.4

q: Need Cell viability, % of CCCCCC/C=C\COC(=O)CCCCCCCCCN(CCO)CCCN(CCCCCCCCCC(=O)OC/C=C\CCCCCC)CCCCCCCCCC(=O)OC/C=C\CCCCCC , thanks.
a: 92.6

q: Which Cell viability, % is listed for CCCCCCCCCCCCOC(=O)CCCN(CCCO)CCCCN(CCCC(=O)OCCCCCCCCCCCC)CCCC(=O)OCCCCCCCCCCCC ?
a: 90.2

q: Consider the compound CC/C=C\COC(=O)CCCCCCCN(CCO)CCCN(CCCCCCCC(=O)OC/C=C\CC)CCCCCCCC(=O)OC/C=C\CC and give its measured Cell viability, %.
a: 90.5

----------
# experimental details: Size and polydispersity index (PDI) of the lipid nanoparticle by dynamic light scattering
# Format: physicochemical
# measurement context: LNP encapsulating eGFP mRNA, ionizable lipid/DOPE/cholesterol/DMG-PEG2000 50/10/48.25/1.25 mol%, N/P 12
value kind: PDI

[A] CCCCCCCCCCCCCOC(=O)CCCCN(CCO)CCCN(CCCCC(=O)OCCCCCCCCCCCCC)CCCCC(=O)OCCCCCCCCCCCCC [Example 39]
[B] CCCCCCCCCCCCCOC(=O)CN(CCCO)CCCN(CC(=O)OCCCCCCCCCCCCC)CC(=O)OCCCCCCCCCCCCC [Example 77]
q: // returns A or B , whichever has the lower PDI Identify your selection by its label.
a: A
(A: 0.13, B: 70.33)

----------
# experimental details: Encapsulation efficiency of the lipid nanoparticle (eGFP mRNA) by Ribogreen method
# Format: physicochemical
# measurement context: LNP encapsulating eGFP mRNA, ionizable lipid/DOPE/cholesterol/DMG-PEG2000 50/10/48.25/1.25 mol%, N/P 12
value kind: Encapsulation rate, % (%)

Examples from the recorded data:
- molecule: "CCCCCCCCCCCOC(=O)CCCCCN(CCO)CCCN(CCCCCC(=O)OCCCCCCCCCCC)CCCCCC(=O)OCCCCCCCCCCC [Example 11]"
  Encapsulation rate, %, %: 90.99
- molecule: "CCCCCC/C=C\\COC(=O)CCCCCCCN(CCCO)CCCN(CCCCCCCC(=O)OC/C=C\\CCCCCC)CCCCCCCC(=O)OC/C=C\\CCCCCC [Example 19]"
  Encapsulation rate, %, %: 92.54
- molecule: "CCCCCCCCCCCCCOC(=O)CCCN(CCCO)CCCCN(CCCC(=O)OCCCCCCCCCCCCC)CCCC(=O)OCCCCCCCCCCCCC [Example 85]"
  Encapsulation rate, %, %: 93.32
- molecule: "CCCCCCCCCCCOC(=O)CCCN(CCO)CCCN(CCCC(=O)OCCCCCCCCCCC)C(=O)CCC(=O)OCCCCCCCCCCC [Example 109]"
  Encapsulation rate, %, %: 79.70

[1] CCCCCCCCCCCCCOC(=O)CCCCCN(CCCO)CCCN(CCCCCC(=O)OCCCCCCCCCCCCC)CCCCCC(=O)OCCCCCCCCCCCCC [Example 30]
[2] CCCCCCCCCCCOC(=O)/C=C/CN(C/C=C/C(=O)OCCCCCCCCCCC)CCCN(C/C=C/C(=O)OCCCCCCCCCCC)CCCO [Example 106]
q: For the pair 1 and 2 , which entry has the numerically smaller recorded Encapsulation rate, %? Selection: enter the item's label.
a: 2
